experiment: Thermodynamic solubility in TBS/Ca2+ buffer; assay type: physicochemical; conditions: TBS/Ca2+ buffer, pH 7.4, thermodynamic from solid; aqueous buffer, from solid; read-out: Solubility S (dissolved from solid form in aqueous buffer)
experimental.endpoint: solubility

Recall and state the measured solubility for O=C(CCc1ccc(O[C@@H]2O[C@H](CO)[C@H](O)[C@H](O)[C@H]2O)cc1)Nc1ccc(CCc2ccc(NC(=O)CCc3ccc(O[C@@H]4O[C@H](CO)[C@H](O)[C@H](O)[C@H]4O)cc3)cc2S(=O)(=O)O)c(S(=O)(=O)O)c1 .
> 1500 µM

====

Record form. Attribute: solubility kinetic at 1 h. Fill in for each entry.
assay: Kinetic solubility in TBS/Ca2+ buffer (HPLC-MS); type: physicochemical; conditions: aqueous buffer, kinetic from dmso stock; TBS/Ca2+ buffer pH 7.4, 1 % DMSO, N≥3; read-out: Solubility S (kinetic)
Numbers only, in µM.

Worked cases, answers included:
O=C(/C=C/c1ccc(O[C@@H]2O[C@H](CO)[C@H](O)[C@H](O)[C@H]2O)cc1)Nc1ccc(OCCOc2ccc(NC(=O)/C=C/c3ccc(O[C@@H]4O[C@H](CO)[C@H](O)[C@H](O)[C@H]4O)cc3)cc2)cc1 [Compound D1]; 3.3
O=C(CCc1ccc(O[C@@H]2O[C@H](CO)[C@H](O)[C@H](O)[C@H]2O)cc1)Nc1ccc(OCCCOc2ccc(NC(=O)CCc3ccc(O[C@@H]4O[C@H](CO)[C@H](O)[C@H](O)[C@H]4O)cc3)cn2)nc1 [Compound I2]; 63.3

Return reported solubility kinetic at 1 h values for all items listed beneath this line.
1. O=C(CCc1ccc(O[C@@H]2O[C@H](CO)[C@H](O)[C@H](O)[C@H]2O)cc1)Nc1ccc(OCCCCOc2ccc(NC(=O)CCc3ccc(O[C@@H]4O[C@H](CO)[C@H](O)[C@H](O)[C@H]4O)cc3)cn2)nc1 [Compound J2]
2. O=C(CCc1ccc(O[C@@H]2O[C@H](CO)[C@H](O)[C@H](O)[C@H]2O)cc1)Nc1ccc(OCCOc2ccc(NC(=O)CCc3ccc(O[C@@H]4O[C@H](CO)[C@H](O)[C@H](O)[C@H]4O)cc3)cc2)cc1 [Compound D2]
3. O=C(/C=C/c1ccc(O[C@@H]2O[C@H](CO)[C@H](O)[C@H](O)[C@H]2O)cc1)Nc1ccc(OCCOc2ccc(NC(=O)/C=C/c3ccc(O[C@@H]4O[C@H](CO)[C@H](O)[C@H](O)[C@H]4O)cc3)cn2)nc1 [Compound H1]
4. O=C(N/N=C/c1ccc(OCCOc2ccc(/C=N/NC(=O)c3ccc(O[C@@H]4O[C@H](CO)[C@H](O)[C@H](O)[C@H]4O)cc3)cc2)cc1)c1ccc(O[C@@H]2O[C@H](CO)[C@H](O)[C@H](O)[C@H]2O)cc1 [Compound 14, reference compound]
5. O=C(CCc1ccc(O[C@@H]2O[C@H](CO)[C@H](O)[C@H](O)[C@H]2O)cc1)Nc1ccc(OCCOc2ccc(NC(=O)CCc3ccc(O[C@@H]4O[C@H](CO)[C@H](O)[C@H](O)[C@H]4O)cc3)cn2)nc1 [Compound H2]

13.7
3.1
8.1
1.6
14.8

====

target: LecA (Pseudomonas aeruginosa, UniProt Q05097); construct: made in house; experiment: Direct binding to immobilized LecA by surface plasmon resonance (SPR); conditions: SPR single-cycle kinetics, 25 °C, N=3 (I1 N=1)
Sequence (Q05097 whole entry): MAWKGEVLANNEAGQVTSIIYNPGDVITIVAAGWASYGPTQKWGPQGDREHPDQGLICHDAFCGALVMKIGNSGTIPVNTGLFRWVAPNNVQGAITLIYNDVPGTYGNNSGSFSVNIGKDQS
experimental.endpoint: kon

O=C(CCc1ccc(O[C@@H]2O[C@H](CO)[C@H](O)[C@H](O)[C@H]2O)cc1)Nc1ccc(OCCCCOc2ccc(NC(=O)CCc3ccc(O[C@@H]4O[C@H](CO)[C@H](O)[C@H](O)[C@H]4O)cc3)cn2)nc1 [Compound J2]; 267 ± 84 x10^3/Ms

Return reported kon values for all items listed beneath this line.
1. O=C(CCc1ccc(O[C@@H]2O[C@H](CO)[C@H](O)[C@H](O)[C@H]2O)cc1)Nc1ccc(OCCCCOc2ccc(NC(=O)CCc3ccc(O[C@@H]4O[C@H](CO)[C@H](O)[C@H](O)[C@H]4O)cc3)cc2)cc1 [Compound F2]
2. O=C(CCc1ccc(O[C@@H]2O[C@H](CO)[C@H](O)[C@H](O)[C@H]2O)cc1)Nc1ccc(OCCOc2ccc(NC(=O)CCc3ccc(O[C@@H]4O[C@H](CO)[C@H](O)[C@H](O)[C@H]4O)cc3)cc2)cc1 [Compound D2]

175 ± 55 x10^3/Ms
123 ± 4.1 x10^3/Ms

Recall and state the measured kon for O=C(CCc1ccc(O[C@@H]2O[C@H](CO)[C@H](O)[C@H](O)[C@H]2O)cc1)Nc1ccc(OCCCOc2ccc(NC(=O)CCc3ccc(O[C@@H]4O[C@H](CO)[C@H](O)[C@H](O)[C@H]4O)cc3)cn2)nc1 [Compound I2] .
262 ± 28 x10^3/Ms

====

test: In vitro metabolic stability, mouse liver microsomes; assay type: in vitro ADME; details: N=3, read-out: CLint MLM
Note to self: use true only for microsomal CLint at 1 µM readings below 20 µL/min/mg; a reading exactly at 20 µL/min/mg still gets false.

Observe how each entry below is paired with its result.
O=C(CCc1ccc(O[C@@H]2O[C@H](CO)[C@H](O)[C@H](O)[C@H]2O)cc1)Nc1ccc(OCCOc2ccc(NC(=O)CCc3ccc(O[C@@H]4O[C@H](CO)[C@H](O)[C@H](O)[C@H]4O)cc3)cn2)nc1; true
O=C(/C=C/c1ccc(O[C@@H]2O[C@H](CO)[C@H](O)[C@H](O)[C@H]2O)cc1)Nc1ccc(OCCOc2ccc(NC(=O)/C=C/c3ccc(O[C@@H]4O[C@H](CO)[C@H](O)[C@H](O)[C@H]4O)cc3)cc2)cc1 [Compound D1]; false
O=C(CCc1ccc(O[C@@H]2O[C@H](CO)[C@H](O)[C@H](O)[C@H]2O)cc1)Nc1ccc(CCc2ccc(NC(=O)CCc3ccc(O[C@@H]4O[C@H](CO)[C@H](O)[C@H](O)[C@H]4O)cc3)cc2S(=O)(=O)O)c(S(=O)(=O)O)c1; false
O=C(/C=C/c1ccc(O[C@@H]2O[C@H](CO)[C@H](O)[C@H](O)[C@H]2O)cc1)Nc1ccc(OCCOc2ccc(NC(=O)/C=C/c3ccc(O[C@@H]4O[C@H](CO)[C@H](O)[C@H](O)[C@H]4O)cc3)cn2)nc1; true

Here is another compound to look at.
Threshold test, microsomal CLint at 1 µM < 20 µL/min/mg: O=C(CCc1ccc(O[C@@H]2O[C@H](CO)[C@H](O)[C@H](O)[C@H]2O)cc1)Nc1ccc(OCCOc2ccc(NC(=O)CCc3ccc(O[C@@H]4O[C@H](CO)[C@H](O)[C@H](O)[C@H]4O)cc3)cc2)cc1 [Compound D2]
false

====

target: LecA (Pseudomonas aeruginosa, UniProt Q05097); construct: made in house; experiment: Isothermal titration microcalorimetry (ITC) with LecA; type: binding; conditions: compared to respective monovalent compound in each series
Record form. Attribute: Relative potency r.p. (ITC). Fill in for each entry.
One number for each entry.

O=C(CCc1ccc(O[C@@H]2O[C@H](CO)[C@H](O)[C@H](O)[C@H]2O)cc1)Nc1ccc(CCc2ccc(NC(=O)CCc3ccc(O[C@@H]4O[C@H](CO)[C@H](O)[C@H](O)[C@H]4O)cc3)cc2S(=O)(=O)O)c(S(=O)(=O)O)c1; 156

Return reported Relative potency r.p. (ITC) values for all items listed beneath this line.
1. COc1ccc(NC(=O)CCc2ccc(O[C@@H]3O[C@H](CO)[C@H](O)[C@H](O)[C@H]3O)cc2)cn1
2. O=C(CCc1ccc(O[C@@H]2O[C@H](CO)[C@H](O)[C@H](O)[C@H]2O)cc1)Nc1ccc(OCCCOc2ccc(NC(=O)CCc3ccc(O[C@@H]4O[C@H](CO)[C@H](O)[C@H](O)[C@H]4O)cc3)cn2)nc1
3. Cc1ccc(NC(=O)CCc2ccc(O[C@@H]3O[C@H](CO)[C@H](O)[C@H](O)[C@H]3O)cc2)cc1S(=O)(=O)O
4. O=C(CCc1ccc(O[C@@H]2O[C@H](CO)[C@H](O)[C@H](O)[C@H]2O)cc1)Nc1ccc(OCCCCOc2ccc(NC(=O)CCc3ccc(O[C@@H]4O[C@H](CO)[C@H](O)[C@H](O)[C@H]4O)cc3)cn2)nc1

1. 1
2. 150
3. 1
4. 66

====

molecular target: LecA (Pseudomonas aeruginosa); construct: made in house; test: Direct binding to immobilized LecA by surface plasmon resonance (SPR); details: compared to respective monovalent compound in each series
experimental.endpoint: Relative potency r.p. (SPR)
Numbers only.

Worked cases, answers included:
O=C(CCc1ccc(O[C@@H]2O[C@H](CO)[C@H](O)[C@H](O)[C@H]2O)cc1)Nc1ccc(OCCCCOc2ccc(NC(=O)CCc3ccc(O[C@@H]4O[C@H](CO)[C@H](O)[C@H](O)[C@H]4O)cc3)cn2)nc1; 118
O=C(/C=C/c1ccc(O[C@@H]2O[C@H](CO)[C@H](O)[C@H](O)[C@H]2O)cc1)Nc1ccc(OCCOc2ccc(NC(=O)/C=C/c3ccc(O[C@@H]4O[C@H](CO)[C@H](O)[C@H](O)[C@H]4O)cc3)cc2)cc1 [Compound D1]; 128
O=C(/C=C/c1ccc(O[C@@H]2O[C@H](CO)[C@H](O)[C@H](O)[C@H]2O)cc1)Nc1ccc(OCCCOc2ccc(NC(=O)/C=C/c3ccc(O[C@@H]4O[C@H](CO)[C@H](O)[C@H](O)[C@H]4O)cc3)cc2)cc1 [Compound E1]; 33
Cc1ccc(NC(=O)CCc2ccc(O[C@@H]3O[C@H](CO)[C@H](O)[C@H](O)[C@H]3O)cc2)cc1S(=O)(=O)O; 1

Field: next molecule
Recall and state the measured Relative potency r.p. (SPR) for COc1ccc(NC(=O)/C=C/c2ccc(O[C@@H]3O[C@H](CO)[C@H](O)[C@H](O)[C@H]3O)cc2)cc1 .
1
